- System: biotinyl-Trp-oxazolone
- Assay Notes: self-aminoacylation, catalytic enhancement (BWO) (fold over background); higher = more active; k-Seq, kA / k0A0; sequences stand for … in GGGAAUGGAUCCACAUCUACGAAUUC…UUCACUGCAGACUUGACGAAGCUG
Variants at the floor of the assay were thinned out.
Overview of recorded self-aminoacylation for various sequences
Keep the answer to the number alone.

Entry AACUUUGCUAAUAGUCGCAAC [Fam3.1 aminoacylation ribozyme variant] — recorded self-aminoacylation = 2.59

AUUCAUCUAGGUAAUCGGGUG [Fam2.2 aminoacylation ribozyme variant] yielded self-aminoacylation of 2.6

So, AAUACCCUGGUCAUCGAGUGC [Fam2.1 aminoacylation ribozyme variant] ? Its self-aminoacylation was 2.03

The value of self-aminoacylation measured for the sequence CUUCUUCAAACAAUCGGUAUG [Fam1A.1 aminoacylation ribozyme variant] turned out to be 4.71

Consider CUACUUCAGACAAUCGGUCUC [Fam1A.1 aminoacylation ribozyme variant] . Its measured self-aminoacylation is 0.825

Sure, the documented self-aminoacylation for CCACUUCAAACAAUCGGUCUA [Fam1A.1 aminoacylation ribozyme variant] is 17.4

The sequence CUACUCUUCAAGCAAUCGGUC [Fam1B.1 aminoacylation ribozyme variant] showed self-aminoacylation equal to 11

Record summary for AAGUUUCUUAAUAGUCGCAAG [Fam3.1 aminoacylation ribozyme variant] : reported self-aminoacylation = 1.66

Reported self-aminoacylation for CCUCAAUUCAAGCAAUCGGUC [Fam1B.1 aminoacylation ribozyme variant] was 3.57

Origin of values: the supplement of paper PMC9233669
